system: U-2 OS; experiment: cell viability (CellTiter-Glo) relative to DMSO (% of control); higher = more viable; conditions: 40 µM; 24 h
Would you mind telling me the reported cell viability of each entry?
Give bare numbers.

These recorded examples may help you get a feel for the data.
INSERT INTO results (compound, subject_of_test, value) VALUES
  ('CC(=O)c1c(O)c(C)c(O)c(Cc2c(O)c3c(c(C(=O)C=Cc4ccccc4)c2O)OC(C)(C)C=C3)c1O', 'U-2 OS', 89),
  ('Oc1cccc(O)c1O', 'U-2 OS', 0.221);

Could you tell me cell viability for each of these compounds? They are listed below.
1. CCCCCCCCCCCC1=C(O)C(=O)C=C(O)C1=O
2. O=C(/C(C(N1CC2=CC=CC=C2)=O)=C/C3=C(C)C=C(O)C=C3C)N(CC4=CC=CC=C4)C1=O
3. O=C1/C(=C/c2ccc(O)c(Br)c2)CCC/C1=C\c1ccc(O)c(Br)c1
4. CCCCCOc1ccc(/C=C\c2cccc(O)c2C(=O)O)cc1
5. O=C(O[C@@H]1Cc2c(O)cc(O)cc2O[C@@H]1c1cc(O)c(O)c(O)c1)c1cc(O)c(O)c(O)c1
6. Cl.Cl.O=C(O)Cn1nnc(-c2ccc(CN(CCCCOc3ccc(CN4CCCC4)cc3)CCc3ccccc3)cc2)n1
7. CC(Cc1ccc(O)c(O)c1)C(C)Cc1ccc(O)c(O)c1 (stereo not given)
8. CC1=CC(=O)c2ccccc2C1=O

**Result**
1: 70.1; 2: 70; 3: 88.5; 4: 104; 5: 83; 6: 88.9; 7: 87.1; 8: 1.15

Below are some compounds; for each one, tell me its cell viability.
1. COc1ccc(/C(Cl)=C(\C=O)c2ccc(OC)cc2)cc1
2. COc1cc(/C=C/c2cc(/C=C/c3ccc(O)c(OC)c3)n(-c3ccc(C(=O)[O-])cc3)n2)ccc1O.[Na+]
3. O=C(OCC)/C(C(OCC)=O)=C\CCCCCCCCCCCCCC
4. Cc1cc2c(C(C)C)c(O)c(O)c(C=O)c2c(O)c1-c1c(C)cc2c(C(C)C)c(O)c(O)c(C=O)c2c1O

**Result**
1: 77.1; 2: 89.6; 3: 98; 4: 42.7
